Reported Ki values are given for each entry in this list.
- measurement-target: purified huBChE (Homo sapiens)
- Construct: gift from Drs; O. Lockridge and L. Schopfer
- Sequence (P06276 29-602): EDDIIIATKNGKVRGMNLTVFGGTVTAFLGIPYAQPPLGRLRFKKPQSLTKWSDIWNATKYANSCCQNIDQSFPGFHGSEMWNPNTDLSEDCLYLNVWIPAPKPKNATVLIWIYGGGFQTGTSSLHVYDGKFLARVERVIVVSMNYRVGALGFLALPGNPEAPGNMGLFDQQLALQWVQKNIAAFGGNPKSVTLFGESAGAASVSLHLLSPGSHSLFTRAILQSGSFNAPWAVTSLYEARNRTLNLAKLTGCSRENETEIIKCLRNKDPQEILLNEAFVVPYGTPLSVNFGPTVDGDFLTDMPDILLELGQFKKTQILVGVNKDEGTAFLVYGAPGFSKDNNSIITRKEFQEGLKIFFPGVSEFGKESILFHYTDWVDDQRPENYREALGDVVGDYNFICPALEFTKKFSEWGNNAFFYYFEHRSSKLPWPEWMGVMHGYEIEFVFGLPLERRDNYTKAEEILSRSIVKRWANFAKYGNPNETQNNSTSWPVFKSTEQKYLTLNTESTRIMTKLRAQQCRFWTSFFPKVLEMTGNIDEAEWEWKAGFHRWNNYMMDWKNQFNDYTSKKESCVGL
- protocol-description: Kinetic studies: progress curves of BSCh hydrolysis by purified huBChE
- Type: biochemical
- experimental-setup: 25 °C, 25 mM phosphate buffer pH 7.0, about 50 µM BSCh; read-out: K1, dissociation constant for binding to the free enzyme
Answer as a quantity: numeral, then unit.

- compound: "O=[N+]([O-])c1ccc(N2CCN(CCN(CC3CCCN(Cc4ccccc4)C3)S(=O)(=O)c3ccc4ccccc4c3)CC2)c2nonc12 (centres unmarked) [3B]"
  Ki: "4.63 nM"

Consider the additional compound presented here.
Task: Please look up its Ki: CCN(CC)c1ccc2cc(C(=O)NCCOCCOCCN(CC3CCCN(Cc4ccccc4)C3)S(=O)(=O)c3ccc4ccccc4c3)c(=O)oc2c1 (centres unmarked) [3A]
Output: 63 nM
